The reported measurements were obtained from patent US9290465B2.

target: SCD1 (Mus musculus, UniProt P13516); construct: Mouse liver microsomes, prepared from mice fed a high-carbohydrate diet, were a source of the SCD; from tissue; host or cells: mouse liver microsomes (mice fed a high-carbohydrate diet); assay: SCD assay: release of tritiated water from desaturation of 9,10-3H-stearoyl CoA, mouse liver microsomes; type: biochemical; conditions: mouse liver microsomes as SCD source; 300 nM (9,10) 3H-stearoyl CoA; 25 minutes at rt; read-out: IC50 (nM), in vitro inhibition of SCD1
Structures can show the parent of a compound that is named as a salt.
# log10(IC50) listing for each entry below
Value Type: log10(IC50) (log10 of the value in nM)

                                    molecule                    target_under_test   value_type  endpoint_value
 0  Nc1conc1-c1ccc(OCc2ccc(SC(F)(F)F)cc2)cc1 [Example 36, hydrochloride]  SCD1 (Mus musculus, UniProt P13516)  log10(IC50)            1.71
 1  CS(=O)(=O)c1ccc(NCc2ccc(-c3nocc3N)cc2)cc1 [Example 7, hydrochloride]  SCD1 (Mus musculus, UniProt P13516)  log10(IC50)            2.91
 2  COC(=O)c1ccc(COc2ccc(-c3nocc3N)cc2)cc1 [Example 5, hydrochloride]  SCD1 (Mus musculus, UniProt P13516)  log10(IC50)            2.18
 3  CSc1ccc(COc2ccc(-c3nocc3N)cc2)cc1 [Example 35, hydrochloride]  SCD1 (Mus musculus, UniProt P13516)  log10(IC50)            2.00
 4            Nc1conc1-c1ccc(OCCc2ccccc2)cc1  SCD1 (Mus musculus, UniProt P13516)  log10(IC50)            3.29
 5             Nc1conc1-c1ccc(OCc2ccccc2)cc1  SCD1 (Mus musculus, UniProt P13516)  log10(IC50)            2.67
 6  Nc1conc1-c1ccc(OCc2ccc(Cl)cc2)cc1 [Example 25, hydrochloride]  SCD1 (Mus musculus, UniProt P13516)  log10(IC50)            2.39
 7         COc1ccc(COc2ccc(-c3nocc3N)cc2)cc1  SCD1 (Mus musculus, UniProt P13516)  log10(IC50)            2.02
 8  Nc1conc1-c1ccc(OCc2cc(F)cc(F)c2)cc1 [Example 21, hydrochloride]  SCD1 (Mus musculus, UniProt P13516)  log10(IC50)            2.41
 9             Nc1conc1-c1ccc(OCc2cccnc2)cc1  SCD1 (Mus musculus, UniProt P13516)  log10(IC50)            3.34
10  N#Cc1cccc(COc2ccc(-c3nocc3N)cc2)c1 [Example 18, hydrochloride]  SCD1 (Mus musculus, UniProt P13516)  log10(IC50)            2.50

* * *

Target: SCD1 (Mus musculus, UniProt P13516)
Construct: Mouse liver microsomes, prepared from mice fed a high-carbohydrate diet, were a source of the SCD; from tissue; host or cells: mouse liver microsomes (mice fed a high-carbohydrate diet)
Sequence (P13516 1-355): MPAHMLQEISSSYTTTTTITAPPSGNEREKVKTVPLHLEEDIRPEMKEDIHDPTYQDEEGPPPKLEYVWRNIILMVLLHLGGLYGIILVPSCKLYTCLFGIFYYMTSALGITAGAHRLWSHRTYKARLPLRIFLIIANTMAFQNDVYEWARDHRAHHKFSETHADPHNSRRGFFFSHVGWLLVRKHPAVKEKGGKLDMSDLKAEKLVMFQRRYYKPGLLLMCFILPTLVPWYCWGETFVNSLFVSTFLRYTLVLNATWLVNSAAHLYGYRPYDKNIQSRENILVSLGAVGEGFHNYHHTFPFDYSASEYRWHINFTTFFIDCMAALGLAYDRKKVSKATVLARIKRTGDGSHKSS
Test: SCD assay: release of tritiated water from desaturation of 9,10-3H-stearoyl CoA, mouse liver microsomes
Assay type: biochemical
Details: mouse liver microsomes as SCD source; 300 nM (9,10) 3H-stearoyl CoA; 25 minutes at rt; read-out: IC50 (nM), in vitro inhibition of SCD1
Structures can show the parent of a compound that is named as a salt.
# IC50 listing for each entry below
Value Type: IC50 (nM)

>>> print(df.to_string())
                                   molecule  value_type  endpoint_value
0  Cc1ccc(COc2ccc(-c3nocc3N)cc2)cc1C [Example 23, hydrochloride]        IC50             148
1  Nc1conc1-c1ccc(OCc2ccc(Cl)c(Cl)c2)cc1 [Example 26, hydrochloride]        IC50             162
2  Nc1conc1-c1ccc(OCc2ccc(OC(F)(F)F)cc2)cc1 [Example 20, hydrochloride]        IC50             135
3  Cc1ccc(COc2ccc(-c3nocc3N)cc2)cc1 [Example 27, hydrochloride]        IC50             196
4          Nc1conc1-c1ccc(OCc2ccc(F)cc2)cc1        IC50             612
5           Nc1conc1-c1ccc(OCCCc2ccccc2)cc1        IC50             372
